Procedure details: compound effects on differentiated 3T3-L1 adipocyte viability – cell-based, 3T3-L1 adipocytes, calcein-AM fluorescence, 48 h, basal, profiling panel (AID 1163); further: test concentration not given here
Details: 3T3-L1 adipocytes viability, higher = more signal
# if measured z-score < 0.05: true (1)  # else: false (0)

Molecule: NCCCCCCNC(=O)[C@@H]1C[C@@H]2C(=O)N[C@@H](CCCCN)C(=O)N2[C@@H]1c1ccc(O)cc1
Label class: false (0)
--
Molecule: CCCCC(O)C1C=CC2C(=O)N(C)C(=O)C2N1N(c1ccccc1)c1ccccc1 (configuration not stated)
Label class: true (1)
--
Molecule: CS(=O)(=O)CCOC(=O)C1=CC(c2ccc(CO)cc2)=CC(C2CC2)N(Cc2sc3ccccc3c2Cl)C=C1C(=O)OCCS(C)(=O)=O (configuration not stated)
Label class: true (1)
--
Molecule: COCCOC(=O)N1C(=O)[C@@]2(c3ccccc31)[C@H](c1ccc(O)cc1)N1[C@H](c3ccccc3)[C@H](c3ccccc3)OC(=O)[C@H]1[C@@H]2C(=O)N1CCN(c2ncccn2)CC1
Label class: false (0)
--
Molecule: CCCC[C@@H]1C[C@H]1[C@@H](NC(=O)c1cccs1)c1ccccc1C(F)(F)F
Label class: true (1)
--
Molecule: CCCC[C@@H](O)C1=C(COc2ccccc2)C[C@H]2C(=O)N(Cc3ccccc3)C(=O)[C@H]2[C@H]1CO
Label class: true (1)
--
Molecule: Cc1ccc(F)cc1S(=O)(=O)N[C@@H]1CCN(Cc2ccc(Br)cc2)C1
Label class: true (1)
--
Molecule: CCCCC(CC)C(O)C1C=CC2C(=O)N(c3ccccc3)C(=O)C2N1Nc1ccccc1F (configuration not stated)
Label class: true (1)
--
Molecule: C=CCOC(=O)[C@@]1(Cc2ccccc2)C[C@H]2CO[C@H](c3ccc(OC)cc3)N2C1=O
Label class: false (0)
--
Molecule: Cc1cc(C)c(C(O)C2C=CC3C(=O)N(c4ccccc4)C(=O)C3N2Nc2ccccc2F)c(C)c1 (configuration not stated)
Label class: true (1)
--
Molecule: CCCCCCCCCC(O)C1C=CC2C(=O)N(c3ccccc3)C(=O)C2N1Nc1cc(OC)c(OC)c(OC)c1 (configuration not stated)
Label class: false (0)
--
Molecule: CC(C)NC(=O)[C@@]1(C)c2ccccc2C(=O)N(Cc2ccc(OC(F)(F)F)cc2)[C@H]1c1ccc(CO)cc1
Label class: false (0)
--
Molecule: CCOC(=O)C[C@H]1[C@H](OC(=O)c2ccccc2-c2ccccc2)[C@@H](NC(=O)c2ccc3ccccc3n2)c2cc(OCCCO)ccc2N1C(=O)Cc1ccc(OC)cc1
Label class: false (0)
--
Molecule: [N-]=[N+]=Nc1ccccc1C[C@@]1(C(=O)N2CCOCC2)N=C(c2ccc(OCCCO)cc2)O[C@@H]1c1ccccc1
Label class: true (1)
--
Molecule: COC(=O)C1(CC(C)C)C=C2C(=C(c3ccccc3)C(=O)C2C)CN1 (configuration not stated)
Label class: true (1)
--
Molecule: O=C1OCCC=C[C@H]2OC34C=CCN(c5ccc6ccccc6c5)C(=O)[C@H]3N(CCCO)C(=O)[C@@H]4C12 (some centres not stated)
Label class: false (0)
--
Molecule: CC(C)C(O)C1C=CC2C(=O)N(c3ccccc3)C(=O)C2N1Nc1ccccc1 (configuration not stated)
Label class: true (1)
